Values from PubChem BioAssay (NCI)

Catalogue of growth inhibition values
Experiment: NCI Yeast Anticancer Drug Screen. Data for the mec2-1 strain (AID 157)
Conditions: S. cerevisiae mec2-1 strain, at 50.0 µM (retest, dose inferred, filed as 5.0), active compounds read high
Method: Growth inhibition of yeast strains with defined genetic alterations is measured as a screen for potential anti-cancer activity. Selected strains with alterations in DNA damage repair or cell cycle control were exposed to compounds and growth inhibition was measured relative to vehicle treated controls. The strain used in this assay is mec2-1
About 79,000 compounds went through this panel and 15% of them were active in at least one assay; those are over-represented in the sample as a whole.

# compound, growth inhibition / %
records = [
    ("CC1(C)CC(=O)C2=C(C1)OC1=C(CC(C)(C)CC1=O)C2c1ccccc1[N+](=O)[O-] (stereo not given)", 12),
    ("Oc1ccc[nH]c1=S", 12),
    ("O=C1C2C3C=CC(C3)C2C(=NS(=O)(=O)c2ccccc2)C2C3C=CC(C3)C12 (stereo not given)", 0),
    ("CC(=O)CC1(O)C(=O)Nc2ccc(Br)cc21 (stereo not given)", -3),
    ("CN(c1ccccc1)N(C)c1ccccc1", -1),
]

---

Test: NCI Yeast Anticancer Drug Screen. Data for the bub3 strain (AID 167)
Settings: S. cerevisiae bub3 mutant strain, at 5.0 µM (retest, dose inferred, filed as 0.5)
About 79,000 compounds went through this panel and 15% of them were active in at least one assay; those are over-represented in the sample as a whole. Calls of active or inactive are those of the source. Cut-off read from the data, not from the text of the source: active = growth inhibition above about 70%; inactive = the rest.
Classes used: active, inactive

# compound, classification
rows = [
    ("OC(c1ccccc1)(C(F)(F)F)C(O)(c1ccccc1)C(F)(F)F (centres undefined)", "active"),
    ("CC(=O)OC1OC2C(NC(=O)OC(C)(C)C)C1CC2(OCc1ccccc1)OCc1ccccc1 (centres undefined)", "inactive"),
    ("CC(=O)N(C1=CC(=O)c2ccccc2C1=O)c1ccc(Cl)cc1", "active"),
    ("c1cc[c]([Sn]([S]c2ccccn2)([c]2ccccc2)[c]2ccccc2)cc1", "active"),
]

---

Experiment: NCI Yeast Anticancer Drug Screen. Data for the mec2-1 strain (AID 157)
Details: S. cerevisiae mec2-1 strain, at 5.0 µM (retest, dose inferred, filed as 0.5)
The panel holds about 79,000 compounds, 15% with a hit somewhere; the sample as a whole holds those more often. Active and inactive are the calls of the source. No stated cut-off is given here; in the data, active means growth inhibition above about 70%; inactive means the rest.
Classes used: active, inactive

# molecule, classification
records = [
    ("C(=NCCc1ccccc1)c1ccccc1B1OB(c2ccccc2C=NCCc2ccccc2)OB(c2ccccc2C=NCCc2ccccc2)O1", "active"),
    ("O=C(C[n+]1ccccc1)c1ccc2ccc3ccc(Cl)cc3c2c1", "inactive"),
    ("O=C(Nc1ccc(Cl)cc1)Nc1nnc2nc(C(C(=O)c3ccc(F)cc3)c3nc4nnc(NC(=O)Nc5ccc(Cl)cc5)n4[nH]c3=O)c(=O)[nH]n12", "inactive"),
]

---

Assay: NCI Yeast Anticancer Drug Screen. Data for the cln2 rad14 strain (AID 165);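 further: 0% = growth equal to vehicle treated cultures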
Conditions: S. cerevisiae cln2 rad14 strain, at 50.0 µM, active compounds read high
Compounds without any hit were thinned out: in the full panel of roughly 79,000, 15% have a hit.

# compound, growth inhibition, %
data = [
    ("COc1c2c(c(C)c3ccc4ccccc4c13)CCN=C2", 13.4),
    ("O=C(O)c1cc(Br)ccc1OCc1ccc(Cl)cc1", 79.4),
    ("OCCCCCCCCCl", 35.9),
    ("Cc1c(NC(=O)/C(=N/NC(=S)N=N)C2C(=O)CC(C)(C)CC2=O)c(O)c2ccccc2c1O", 47),
    ("CCCCCCCOC(=O)c1cc2cc(C(CC)C(CC)c3ccc(O)cc3)ccc2oc1=O (stereo not given)", 87.4),
]
